Values compiled from ChEMBL document CHEMBL2417538.

target: UniProt P00742
Sequence (P00742 41-179 limits assumed): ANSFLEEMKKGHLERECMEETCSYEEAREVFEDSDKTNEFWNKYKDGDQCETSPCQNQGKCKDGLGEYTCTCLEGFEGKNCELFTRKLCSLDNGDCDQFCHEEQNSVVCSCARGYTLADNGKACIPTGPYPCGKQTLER
Sequence (P00742 235-488 limits assumed): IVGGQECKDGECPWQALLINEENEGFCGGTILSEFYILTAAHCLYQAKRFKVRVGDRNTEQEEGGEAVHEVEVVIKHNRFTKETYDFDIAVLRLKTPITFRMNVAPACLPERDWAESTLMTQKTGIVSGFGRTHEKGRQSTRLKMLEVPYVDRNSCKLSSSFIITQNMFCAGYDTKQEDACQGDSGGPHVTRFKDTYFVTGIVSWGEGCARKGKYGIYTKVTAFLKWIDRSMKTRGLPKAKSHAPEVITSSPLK
pKi: −log10 of the molar value.
Test Readout: pKi

[
  {
    "Compound": "N=C(N)c1ccc(CNC(=O)[C@@H]2CCN2C(=O)[C@H](NCC(=O)O)C2CCCCC2)cc1",
    "Val": 5.43
  },
  {
    "Compound": "CC1CNc2c(cccc2S(=O)(=O)N[C@@H](CCCNC(=N)N)C(=O)N2CC[C@@H](C)C[C@@H]2C(=O)O)C1 (stereo partly drawn)",
    "Val": 4.28
  },
  {
    "Compound": "N=C(N)c1ccc(CNC(=O)[C@@H]2CCCN2C(=O)[C@@H](NCC(=O)O)C(c2ccccc2)c2ccccc2)s1",
    "Val": 5.65
  }
]

====

experiment: Aqueous solubility of the compound at pH 7.35; format: physicochemical; details: aqueous solution
Test Readout: solubility (µg/mL)

[
  {
    "Compound String": "N=C(N)c1ccc(CNC(=O)[C@@H]2CCCN2C(=O)[C@@H](NCC(=O)O)C(c2ccccc2)c2ccccc2)s1",
    "Val": 460
  }
]

====

biological target: UniProt:P00734
pKi: −log10 of the molar value.

[
  {
    "Compound String": "N=C(N)c1ccc(CNC(=O)[C@@H]2CCCN2C(=O)[C@@H](NCC(=O)O)C(c2ccccc2)c2ccccc2)s1",
    "pKi": 10.70
  }
]

====

experiment: Aqueous solubility of the compound at pH 6.96; format: physicochemical; settings: aqueous solution

[
  {
    "Compound String": "CCOC(=O)CN[C@H](C(=O)N1CCC[C@H]1C(=O)NCc1ccc(/C(N)=N/O)s1)C(c1ccccc1)c1ccccc1",
    "solubility": "< 10 µg/mL"
  }
]

====

target: Prothrombin (Homo sapiens)
Test Readout: Kd (nM)

[
  {
    "Compound String": "N=C(N)c1ccc(CNC(=O)[C@@H]2CCCN2C(=O)[C@@H](NCC(=O)O)C(c2ccccc2)c2ccccc2)s1",
    "Val": 0.18
  }
]

====

assay: Plasma protein binding in human at 5 ug/ml by ultra-filtration method; type: ADME, cell-free; settings: read-out: PPB (converted)

[
  {
    "Compound String": "N=C(N)c1ccc(CNC(=O)[C@@H]2CCCN2C(=O)[C@@H](NCC(=O)O)C(c2ccccc2)c2ccccc2)s1",
    "fraction unbound at 5 ug/ml": 0.482
  }
]

====

assay: Oral bioavailability in monkey; type: ADME, organism-based, Macaca mulatta; conditions: rhesus monkey, in vivo
Test Readout: bioavailability (%)

[
  {
    "Compound String": "N=C(N)c1ccc(CNC(=O)[C@@H]2CCCN2C(=O)[C@@H](NCC(=O)O)C(c2ccccc2)c2ccccc2)s1",
    "Test Readout": "bioavailability",
    "U": "%",
    "Val": 15
  }
]

====

target: Prothrombin (Homo sapiens); assay: Inhibition of plasma clot-bound thrombin (unknown origin) using S2238 as substrate
pIC50: −log10 of the molar value.

[
  {
    "Compound String": "N=C(N)c1ccc(CNC(=O)[C@@H]2CCCN2C(=O)[C@@H](NCC(=O)O)C(c2ccccc2)c2ccccc2)s1",
    "pIC50": 8.30
  }
]

====

assay: AUC in Beagle dog at 10 mg/kg, po; type: ADME, organism-based, Canis lupus familiaris; parameters: dose 10 mg/kg, route oral; conditions: plasma

[
  {
    "Compound String": "N=C(N)c1ccc(CNC(=O)[C@@H]2CCCN2C(=O)[C@@H](NCC(=O)O)C(c2ccccc2)c2ccccc2)s1",
    "AUC [ng·h/mL]": 12200
  }
]

====

assay: Cmax in Beagle dog at 10 mg/kg, po; assay type: ADME, organism-based, Canis lupus familiaris; set-up: dose 10 mg/kg, route oral; settings: in vivo

[
  {
    "Compound String": "N=C(N)c1ccc(CNC(=O)[C@@H]2CCCN2C(=O)[C@@H](NCC(=O)O)C(c2ccccc2)c2ccccc2)s1",
    "U": "ng/mL",
    "Cmax": 6900
  }
]

====

assay: Plasma protein binding in rat at 30 ug/ml by ultra-filtration method; format: ADME, cell-free; conditions: read-out: PPB (converted)

[
  {
    "Compound String": "N=C(N)c1ccc(CNC(=O)[C@@H]2CCCN2C(=O)[C@@H](NCC(=O)O)C(c2ccccc2)c2ccccc2)s1",
    "fraction unbound at 30 ug/ml": 0.182
  }
]

====

assay: AUC in Sprague-Dawley rat at 30 mg/kg, po; format: ADME, organism-based; set-up: dose 30 mg/kg, route oral; details: plasma

[
  {
    "Compound String": "N=C(N)c1ccc(CNC(=O)[C@@H]2CCCN2C(=O)[C@@H](NCC(=O)O)C(c2ccccc2)c2ccccc2)s1",
    "AUC [ng·h/mL]": 9270
  }
]

====

assay: Plasma protein binding in human at 30 ug/ml by ultra-filtration method; assay type: ADME, cell-free; conditions: read-out: PPB (converted)
Test Readout: fraction unbound at 30 ug/ml

[
  {
    "Compound String": "N=C(N)c1ccc(CNC(=O)[C@@H]2CCCN2C(=O)[C@@H](NCC(=O)O)C(c2ccccc2)c2ccccc2)s1",
    "Val": 0.508
  }
]

====

test: Aqueous solubility of the compound at pH 7.4; assay type: physicochemical; settings: aqueous solution
Test Readout: solubility (µg/mL)

[
  {
    "Compound": "CCCCCCOC(=O)NC(=N)c1ccc(NCc2nc3cc(C(=O)N(CCC(=O)OCC)c4ccccn4)ccc3n2C)cc1 [DABIGATRAN ETEXILATE]",
    "Test Readout": "solubility",
    "U": "µg/mL",
    "Val": 0.4
  }
]

====

The reader will find reported Ki values listed item by item below.
target: Plasminogen (Homo sapiens)
Sequence (P00747 97-580 limits assumed): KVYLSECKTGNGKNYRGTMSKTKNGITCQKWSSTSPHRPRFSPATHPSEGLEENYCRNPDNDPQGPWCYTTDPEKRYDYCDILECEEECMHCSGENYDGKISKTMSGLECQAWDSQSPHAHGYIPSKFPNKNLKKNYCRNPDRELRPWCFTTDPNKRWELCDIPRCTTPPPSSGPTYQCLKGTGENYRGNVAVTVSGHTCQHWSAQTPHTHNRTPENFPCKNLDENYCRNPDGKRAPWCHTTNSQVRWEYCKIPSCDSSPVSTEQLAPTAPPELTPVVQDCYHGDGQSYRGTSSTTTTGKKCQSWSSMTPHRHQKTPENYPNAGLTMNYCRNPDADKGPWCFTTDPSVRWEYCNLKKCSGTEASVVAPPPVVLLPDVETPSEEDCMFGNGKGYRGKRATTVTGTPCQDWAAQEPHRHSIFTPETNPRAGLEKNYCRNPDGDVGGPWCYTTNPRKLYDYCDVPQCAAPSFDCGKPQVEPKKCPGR
Sequence (P00747 581-810 limits assumed): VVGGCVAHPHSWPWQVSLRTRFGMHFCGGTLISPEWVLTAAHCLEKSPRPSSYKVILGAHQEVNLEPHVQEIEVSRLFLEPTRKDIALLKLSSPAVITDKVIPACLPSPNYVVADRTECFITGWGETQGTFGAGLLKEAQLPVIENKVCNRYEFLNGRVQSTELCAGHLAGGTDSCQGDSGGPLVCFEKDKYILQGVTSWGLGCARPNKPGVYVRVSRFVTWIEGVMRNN
Test Readout: Ki (µM)

[
  {
    "Compound String": "N=C(N)c1ccc(CNC(=O)[C@@H]2CCCN2C(=O)[C@@H](NCC(=O)O)C(c2ccccc2)c2ccccc2)s1",
    "Val": 7.43
  },
  {
    "Compound String": "N=C(N)c1ccc(CNC(=O)[C@@H]2CCN2C(=O)[C@H](NCC(=O)O)C2CCCCC2)cc1",
    "Val": 1.8
  }
]

====

test: Plasma protein binding in dog at 30 ug/ml by ultra-filtration method; format: ADME, cell-free, Canis lupus familiaris; conditions: read-out: PPB (converted)

[
  {
    "Compound String": "N=C(N)c1ccc(CNC(=O)[C@@H]2CCCN2C(=O)[C@@H](NCC(=O)O)C(c2ccccc2)c2ccccc2)s1",
    "fraction unbound at 30 ug/ml": 0.216
  }
]

====

assay: Dissociation constant, pKa of the compound by potentiometric titration; assay type: physicochemical
The reader will find reported pKa values listed item by item below.
Test Readout: pKa

[
  {
    "Molecule": "CCOC(=O)CN[C@@H](C(=O)N1CC[C@H]1C(=O)NCc1ccc(/C(N)=N\\O)cc1)C1CCCCC1 [XIMELAGATRAN]",
    "Test Readout": "pKa",
    "Val": 4.73
  },
  {
    "Molecule": "N=C(N)c1ccc(CNC(=O)[C@@H]2CCCN2C(=O)[C@@H](NCC(=O)O)C(c2ccccc2)c2ccccc2)s1",
    "Test Readout": "pKa",
    "Val": 1.91
  },
  {
    "Molecule": "CCOC(=O)CN[C@H](C(=O)N1CCC[C@H]1C(=O)NCc1ccc(/C(N)=N/O)s1)C(c1ccccc1)c1ccccc1",
    "Test Readout": "pKa",
    "Val": 3.98
  }
]

====

assay: Aqueous solubility of the compound at pH 3.04; assay type: physicochemical; conditions: aqueous solution
Test Readout: solubility (µg/mL)

[
  {
    "Compound String": "CCOC(=O)CN[C@H](C(=O)N1CCC[C@H]1C(=O)NCc1ccc(/C(N)=N/O)s1)C(c1ccccc1)c1ccccc1",
    "Test Readout": "solubility",
    "U": "µg/mL",
    "Val": 550
  }
]

====

experiment: Plasma protein binding in dog at 1 ug/ml by ultra-filtration method; format: ADME, cell-free, Canis lupus familiaris; conditions: read-out: PPB (converted)

[
  {
    "Compound String": "N=C(N)c1ccc(CNC(=O)[C@@H]2CCCN2C(=O)[C@@H](NCC(=O)O)C(c2ccccc2)c2ccccc2)s1",
    "fraction unbound at 1 ug/ml": 0.174
  }
]

====

target: Prothrombin (Homo sapiens, UniProt P00734); assay: Inhibition of free thrombin (unknown origin) using S2238 as substrate
Test Readout: IC50 (nM)

[
  {
    "Compound String": "N=C(N)c1ccc(CNC(=O)[C@@H]2CCCN2C(=O)[C@@H](NCC(=O)O)C(c2ccccc2)c2ccccc2)s1",
    "System Name": "Prothrombin (Homo sapiens, UniProt P00734)",
    "Val": 2.1
  }
]
